target under test: Transforming acidic coiled-coil-containing protein 3 (Homo sapiens) (UniProt Q9Y6A5)
assay procedure: inhibition of ARNT PAS-B/TACC3 complex formation – biochemical, AlphaScreen, cherry-picked samples, confirmation (AID 651703);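 note: TACC3 partner is the GST-tagged E629A mutant dimer; hits lower the signal meaning they disrupt ARNT binding to TACC3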
test conditions: AlphaScreen His-ARNT PAS-B / GST-TACC3 binding, luminescence
endpoint label: AC50

So, CC(C)(C)c1ccc(CNc2nc(-c3ccccn3)nnc2-c2ccccc2)cc1 ? Its AC50 was 1.33 µM

So for O=C(NC[C@@H]1[C@H](c2ccccc2)[C@H](CO)N1Cc1ccccn1)C1CCC1 , the logged AC50 turned out to be 28.2 µM

The reported AC50 of the compound CC(Oc1ccccc1)C(=O)Nc1nc(-c2ccccn2)cs1 (centres undefined) was 13.2 µM

compound C[C@H](CO)N1C[C@H](C)[C@@H](CN(C)S(=O)(=O)c2ccc(Cl)cc2)Oc2c(NC(=O)Nc3cccc4ccccc34)cccc2C1=O , AC50 observed: 62 µM

The reported AC50 of the compound Cc1ccsc1C(=O)OCC(=O)Nc1nnc(-c2ccccc2)o1 was 14.4 µM

Quick note, AC50 for C/C=C/c1ccc([C@@H]2[C@H](CO)N(Cc3ccccn3)[C@H]2CNC(C)=O)cc1 landed at 47.8 µM

Reported AC50 of Cc1cc(C(=O)N/N=C/c2c(CO)cnc(C)c2O)c2ccccc2n1 : 3.5 µM

Recorded result, O=S(=O)(N[C@@H]1CC[C@@H](CCn2cc(-c3ccccn3)nn2)O[C@@H]1CO)c1cccc(F)c1 , AC50: 13.4 µM

Recorded result, Cc1ccc(S(=O)(=O)CCC(=O)Nc2nc(-c3ccccn3)cs2)cc1 , AC50: 10.5 µM
